Test system: 42D
Assay: Proliferation EC50, 42D
Format: cell-based
Conditions: Table 2
Property label: EC50 (µM)
Supply the numeric figure in µM, leaving out any unit text.

Request: Provide EC50, recorded with 42D, of CNc1ncnc2c1c(-c1ccc3cc(OC4CC4)ccc3c1)nn2CC(C)(C)O
Result: 10

====

System: LNCaP
Assay: MTT proliferation assay, LNCaP
Conditions: Homo sapiens, read-out: EC50 LNCaP
Property label: EC50 (µM)
Supply the numeric figure in µM, leaving out any unit text.

Request: Using the record for CNc1ncnc2c1c(-c1ccc3cc(OC4CC4)ccc3c1)nn2CC(C)(C)O [Example 1] , state its measured EC50.
Result: 8
